System: A-431
assay.notes: Cytotoxicity against human A431 cells assessed as reduction in cell growth at 30 uM incubated for 72 hrs by MTT assay relative to control
Format: functional
condition.label: A-431, 72 h, read-out: GI
Attribute: inhibition of growth at 30 µM
All answers are understood in %, so give the number only.

>>> print(df.to_string())
                                   molecule  target_or_test_system               observation_type  observed_value
0         Cc1cccc(/C(N)=N/NC(=S)N2CCOCC2)n1                  A-431  inhibition of growth at 30 µM              80
1  Cc1ccnc(/C(N)=N/NC(=S)N2CCN(c3ccccn3)CC2)c1                  A-431  inhibition of growth at 30 µM            65.7
2         Cc1ccnc(/C(N)=N/NC(=S)N2CCOCC2)c1                  A-431  inhibition of growth at 30 µM            74.6
3        N/C(=N\NC(=S)N1CCCCCC1)c1ccc(F)cn1                  A-431  inhibition of growth at 30 µM            81.3
4         N/C(=N\NC(=S)N1CCSCC1)c1ccc(F)cn1                  A-431  inhibition of growth at 30 µM            84.6
5            N/C(=N\NC(=S)N1CCOCC1)c1ccccn1                  A-431  inhibition of growth at 30 µM            78.8
6         Cc1cccc(/C(N)=N/NC(=S)N2CCSCC2)n1                  A-431  inhibition of growth at 30 µM            64.5
7  N/C(=N\NC(=S)N1CCN(c2ccccn2)CC1)c1ccccn1                  A-431  inhibition of growth at 30 µM            74.9

Exam item: # get_value(readout='inhibition of growth at 30 µM', item= `Cc1ccnc(/C(N)=N/NC(=S)N2CCCCC2)c1` )
Marked response: 62.8

Exam item: And what about the molecule `N/C(=N\NC(=S)N1CCCCCC1)c1ccccn1` ?
Marked response: 72.3

Exam item: And what about the molecule `N/C(=N\NC(=S)N1CCSCC1)c1ccccn1` ?
Marked response: 81.3

Exam item: And what about the molecule `N/C(=N\NC(=S)N1CCN(c2ccccn2)CC1)c1ccc(F)cn1` ?
Marked response: 62.3

* * *

System: A-431
assay.notes: Cytotoxicity against human A431 cells assessed as reduction in cell growth at 100 uM incubated for 72 hrs by MTT assay relative to control
Assay type: functional
condition.label: A-431, 72 h, read-out: GI
observation.type: inhibition of growth at 100 µM (%)
All answers are understood in %, so give the number only.

Use these answered entries as a reference point.
                             molecule  observed_value
0   Cc1cccc(/C(N)=N/NC(=S)N2CCSCC2)n1            80.7
1     N/C(=N\NC(=S)N1CCCCCC1)c1ccccn1            77.5
2    N/C(=N\NC(=S)N1CCCC1)c1ccc(F)cn1            85.6
3  N/C(=N\NC(=S)N1CCCCCC1)c1ccc(F)cn1            83.5

Exam item: # get_value(readout='inhibition of growth at 100 µM', item= `N/C(=N\NC(=S)N1CCCC1)c1ccccn1` )
Marked response: 83.8

Exam item: And what about the molecule `Cc1cccc(/C(N)=N/NC(=S)N2CCN(c3ccccn3)CC2)n1` ?
Marked response: 78.9

Exam item: And what about the molecule `N/C(=N\NC(=S)N1CCOCC1)c1ccccn1` ?
Marked response: 84.6

Measured values drawn from ChEMBL document CHEMBL4387724 for this set.
